- study-system: UniProt O76074
observation-type: pIC50
Field pIC50 (float): negative decimal logarithm of the concentration in molar.

CCCc1nn(C)c2c(=O)[nH]c(-c3cc(S(=O)(=O)N4CCCN(CCC(=O)O)CC4)ccc3OCC)nc12 [Compound 7] : 8.92
CCCc1nn(C)c2c(=O)[nH]c(-c3cc(S(=O)(=O)N4CCCNCC4)ccc3OCC)nc12 [Compound 1] : 8.38
CCCc1nn(C)c2c(=O)[nH]c(-c3cc(S(=O)(=O)N4CCCN(C(C)=O)CC4)ccc3OCC)nc12 [Compound 2] : 8.19
CCCc1nn(C)c2c(=O)[nH]c(-c3cc(S(=O)(=O)N4CCCN(CCCO)CC4)ccc3OCC)nc12 [Compound 4] : 8.74

*Q* What value of measured pIC50 is listed for CCCc1nn(C)c2c(=O)[nH]c(-c3cc(S(=O)(=O)N4CCCN(C(=O)OC(C)(C)C)CC4)ccc3OCC)nc12 [Compound 5] ?
*A* 8.46
